Target: TRPC5 channel (Homo sapiens, UniProt Q9UL62)
Construct: expressed in transfected cells; host or cells: HEK293/TREx (Invitrogen), tetracycline-induced
Sequence (Q9UL62 whole entry): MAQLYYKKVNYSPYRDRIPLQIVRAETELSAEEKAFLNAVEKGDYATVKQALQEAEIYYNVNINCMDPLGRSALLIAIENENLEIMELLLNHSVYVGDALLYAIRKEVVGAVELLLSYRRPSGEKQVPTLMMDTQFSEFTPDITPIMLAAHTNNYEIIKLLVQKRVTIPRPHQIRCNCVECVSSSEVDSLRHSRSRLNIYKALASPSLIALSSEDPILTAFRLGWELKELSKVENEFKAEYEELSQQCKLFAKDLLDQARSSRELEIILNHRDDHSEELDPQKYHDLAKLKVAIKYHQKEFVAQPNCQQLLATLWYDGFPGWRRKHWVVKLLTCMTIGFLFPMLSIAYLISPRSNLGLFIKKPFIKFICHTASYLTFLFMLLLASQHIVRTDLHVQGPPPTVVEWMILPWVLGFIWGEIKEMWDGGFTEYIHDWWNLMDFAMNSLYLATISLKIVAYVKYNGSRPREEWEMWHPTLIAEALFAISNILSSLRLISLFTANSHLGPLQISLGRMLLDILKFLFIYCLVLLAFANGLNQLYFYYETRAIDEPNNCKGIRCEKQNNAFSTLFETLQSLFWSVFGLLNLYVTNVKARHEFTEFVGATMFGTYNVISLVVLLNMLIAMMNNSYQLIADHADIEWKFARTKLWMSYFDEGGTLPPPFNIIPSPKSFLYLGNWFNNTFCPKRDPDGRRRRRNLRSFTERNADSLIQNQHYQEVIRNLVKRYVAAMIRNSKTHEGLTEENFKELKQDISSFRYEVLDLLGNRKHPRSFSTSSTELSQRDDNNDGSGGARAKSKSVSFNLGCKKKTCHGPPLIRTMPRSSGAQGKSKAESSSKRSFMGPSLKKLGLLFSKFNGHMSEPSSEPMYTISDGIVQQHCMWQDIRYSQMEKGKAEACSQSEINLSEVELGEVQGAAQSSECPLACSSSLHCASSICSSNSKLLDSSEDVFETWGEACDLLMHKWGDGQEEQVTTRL
Experiment: High throughput screening assay: Fluo4 cell-based fluorescence Ca2+ influx assay
Conditions: HEK293/TREx cells inducibly expressing TRPC5, inhibition of [Ca2+]i rise after high-Ca2+ Ringer (14 mM Ca2+), triplicate, 0.027-20 μM
pIC50: −log10 of the molar value.
Collected pIC50 values appear next to each entry.

[
  {
    "Record smiles": "CC(C)c1ccccc1-c1ncc2c(c1Cc1ccc(Cl)cc1)c(=O)n(CCCO)c(=O)n2C",
    "pIC50": 5.63
  },
  {
    "Record smiles": "CC(C)c1ccccc1-c1cc2c(=O)n(CCCO)c(=O)n(C)c2cn1",
    "pIC50": 5.37
  },
  {
    "Record smiles": "Cn1c(=O)n(CCCO)c(=O)c2c(Cc3ccccc3)c(-c3cccc(OC(F)(F)F)c3)ncc21",
    "pIC50": 6.71
  },
  {
    "Record smiles": "CC(C)CCc1c(-c2ccccc2C(C)C)ncc2c1c(=O)n(CCCO)c(=O)n2C",
    "pIC50": 5.01
  }
]
